- Assayed System: T1, human PD-1 coupled to human Fc (human, UniProt Q15116 25-167, limits assumed)
- T1 construct: also called human-PD-1 coupled to Fc; not shown: human Fc
- T1 sequence (Q15116 25-167 limits assumed): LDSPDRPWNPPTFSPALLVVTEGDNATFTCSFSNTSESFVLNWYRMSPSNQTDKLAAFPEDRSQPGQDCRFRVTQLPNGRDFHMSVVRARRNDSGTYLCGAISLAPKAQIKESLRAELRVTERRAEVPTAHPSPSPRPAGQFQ
- Protocol Notes: SPR (ProteOn XPR36); human PD-1-Fc immobilised, crude Fab extract flown over
Value Kind: pKd
As a rule, pKd stands for the negative log10 of the concentration, concentration in M.

Entry anti-PD-1 antibody clone F2 (Fab) (Fab, V domains shown, Crude Fab extract in SPR) VH: QVQLVESGGGVVQPGRSLRLSCAASGFTFSSYGMHWVRQAPGKGLEWVAVISYDGSNKYYADSVKGRFTISRDNSKNTLYLQMNSLRAEDTAVYYCASDLGAGPYYYGMDVWGQGTTVTVSS VL: QSVLTQPPSASGTPGQRVTISCSGSSSNIKFNSVNWYQQLPGTAPKLLIYSNNQRPSGVPDRFSGSKSGTSASLAISGLQSEDEADYYCSSWDDDARGTIFGGGTKLTVL , pKd reported as 9.96

Briefly, pKd measured for anti-PD-1 antibody clone A10 (Fab) (Fab, V domains shown, Crude Fab extract in SPR) VH: QVQLVQSGGGVVQPGRSLRLSCAASGFTFSSYGMHWVRQAPGKGLEWVAVISYDGSNKYYADSVKGRFTISRDNSKNTLYLQMNSLRAEDTAVYYCASDLGAGPYYYGKDVWGQGTTVTVSS VL: LPVLTQPPSASGTPGQRVTISCSGSSSNIKFNSVNWYQQLPGTAPKLLIYSNNQRPSGVPDRFSGSKSGTSASLAISGLQSEDEADYFCASWDDYYYGTIFGGGTKLTVL : 10.10

Briefly, pKd measured for anti-PD-1 antibody clone A3 (Fab) (Fab, V domains shown, Flown as crude Fab extract in SPR) VH: QVQLVQSGGGVVQPGRSLRLSCAASGFTFSSYGMHWVRQAPGKGLEWVAVISYDGSNKYYADSVKGRFTISRDNSKNTLYLQMNSLRAEDTAVYYCASDLGAGPYYYGKDHWGQGTTVTVSS VL: LPVLTQPPSASGTPGQRVTISCSGSSSNIKFNSVNWYQQLPGTAPKLLIYSNNQRPSGVPDRFSGSKSGTSASLAISGLQSEDEADYFCASWDDVLYGSVFGGGTKLTVL : 9.70

Just so you know, measured pKd for anti-PD-1 antibody clone D4 (Fab) (Fab, V domains shown, Crude Fab extract in SPR) VH: QVQLVESGGGVVQPGRSLRLSCAASGFTFSSYGMHWVRQAPGKGLEWVAVISYDGSNKYYADSVKGRFTISRDNSKNTLYLQMNSLRAEDTAVYYCASDLGAGPYYYGMDVWGQGTTVTVSS VL: QSVLTQPPSASGTPGQRVTISCSGSSSNIKFNSVNWYQQLPGTAPKLLIYSNNQRPSGVPDRFSGSKSGTSASLAISGLQSEDEADYYCASWDDYVRGTMFGGGTKLTVL came out at 9.66
